# MIC per record follows
System: Methicillin-susceptible Staphylococcus aureus (MSSA)
RUN_DESCRIPTION: MIC by agar dilution, MSSA clinical isolates
Assay type: cell-based
RUN_CONDITIONS: Table 2; MSSA, data from 8 isolates
Description: A panel of multiple resistance Gram-positive and Gram-negative pathogens listed in Tables 1 and 2 was used to evaluate the antimicrobial activity of marinopyrrole derivatives (Chart 1) with vancomycin as a positive control. […] The potency of the compound was determined and expressed as minimum inhibitory concentration (MIC) in μg/mL. The MIC was determined as the lowest concentration of antibiotic that inhibited visible bacterial growth.

| COMPOUND | MIC |
| --- | --- |
| COc1ccc(CS(=O)(=O)c2ccc(C(=O)c3[nH]c(Cl)c(Cl)c3-n3c(C(=O)c4ccc(S(=O)(=O)Cc5ccc(OC)cc5)cc4O)cc(Cl)c3Cl)c(O)c2)cc1 [Compound 30] | >64 mg/L |
| CCOC(=O)CSc1ccc(C(=O)c2[nH]c(Cl)c(Cl)c2-n2c(C(=O)c3ccc(SCC(=O)OCC)cc3O)cc(Cl)c2Cl)c(O)c1 [Compound 25] | 64 mg/L |
| O=C(c1ccc(SCc2ccccc2)cc1O)c1[nH]c(Cl)c(Cl)c1-n1c(C(=O)c2ccc(SCc3ccccc3)cc2O)cc(Cl)c1Cl [Compound 26] | >64 mg/L |
| CCOC(=O)CS(=O)(=O)c1ccc(C(=O)c2[nH]c(Cl)c(Cl)c2-n2c(C(=O)c3ccc(S(=O)(=O)CC(=O)OCC)cc3O)cc(Cl)c2Cl)c(O)c1 [Compound 28] | >64 mg/L |
| COc1ccc(CSc2ccc(C(=O)c3[nH]c(Cl)c(Cl)c3-n3c(C(=O)c4ccc(SCc5ccc(OC)cc5)cc4O)cc(Cl)c3Cl)c(O)c2)cc1 [Compound 27] | >64 mg/L |
| O=C(c1ccc(S(=O)(=O)Cc2ccccc2)cc1O)c1[nH]c(Cl)c(Cl)c1-n1c(C(=O)c2ccc(S(=O)(=O)Cc3ccccc3)cc2O)cc(Cl)c1Cl [Compound 29] | >64 mg/L |
